Target: Fes (UniProt P07332)
Sequence (P07332 whole entry, looked up): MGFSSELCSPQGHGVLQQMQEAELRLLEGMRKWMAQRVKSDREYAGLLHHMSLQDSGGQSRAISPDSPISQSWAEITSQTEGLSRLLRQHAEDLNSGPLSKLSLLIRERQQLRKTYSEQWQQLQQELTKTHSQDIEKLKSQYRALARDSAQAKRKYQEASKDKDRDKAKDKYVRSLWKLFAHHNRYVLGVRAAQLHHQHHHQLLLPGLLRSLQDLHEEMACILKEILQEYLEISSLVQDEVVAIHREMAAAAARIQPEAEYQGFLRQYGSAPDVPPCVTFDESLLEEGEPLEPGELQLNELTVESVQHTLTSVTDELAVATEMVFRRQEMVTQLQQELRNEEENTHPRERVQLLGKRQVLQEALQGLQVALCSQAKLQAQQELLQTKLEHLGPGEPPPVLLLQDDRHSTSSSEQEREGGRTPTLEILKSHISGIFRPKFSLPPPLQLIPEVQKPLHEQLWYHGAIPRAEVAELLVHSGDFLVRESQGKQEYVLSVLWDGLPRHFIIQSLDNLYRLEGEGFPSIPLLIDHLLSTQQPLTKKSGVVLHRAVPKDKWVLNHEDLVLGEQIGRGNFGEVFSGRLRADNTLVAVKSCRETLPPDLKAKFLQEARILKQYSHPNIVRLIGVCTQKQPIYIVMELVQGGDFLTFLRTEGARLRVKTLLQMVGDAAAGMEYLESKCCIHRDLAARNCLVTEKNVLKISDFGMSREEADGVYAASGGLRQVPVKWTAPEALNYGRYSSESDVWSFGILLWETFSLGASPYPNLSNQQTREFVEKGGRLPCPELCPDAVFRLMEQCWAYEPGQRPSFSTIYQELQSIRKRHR
Assay: phosphorylation enrichment, bacterial display (enrichment ratio); higher = better substrate or ligand; peptides without Tyr show the background;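 also: 11-residue human phosphosite peptides and single-mutation variants displayed on the E. coli surface, counted by deep sequencing, each peptide's frequency after selection divided by its frequency in the unselected input library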;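 also: frequency after pTyr selection over input frequency; kinase dosed for 20-30% of maximal phosphorylation in three min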
measured.quantity: phosphorylation enrichment
# output: bare number, no unit

Return phosphorylation enrichment for the following sequence: CDSSGYWTPEE [PAPPA2_Y908] 1.47

Return phosphorylation enrichment for the following sequence: HRNNNYEPNLF [BRCA2_Y57_K53R] 0.75

Return phosphorylation enrichment for the following sequence: SEDANYMRVSC [TTC3_Y1288_K1289M] 0.958

Return phosphorylation enrichment for the following sequence: GLDGSYLLTDS [SH2D1A_Y29_R32T] 0.863

Return phosphorylation enrichment for the following sequence: DGTGRYLCNAC [GATA5_Y208_H207R] 0.573

Return phosphorylation enrichment for the following sequence: KEDPEYKKKFR [FAM161A_Y278_E273K] 1.07

Return phosphorylation enrichment for the following sequence: EGWQVYRLGTR [MISP_Y95_A99T] 0.75

Return phosphorylation enrichment for the following sequence: AAGGRYDGLVG [HARS1_Y363] 0.615

Return phosphorylation enrichment for the following sequence: EKRDAYVSRLN [GSR_Y150] 0.575

Return phosphorylation enrichment for the following sequence: KANEFYPVVII [ADAMTS18_Y765_L769I_YF] 1.16

Return phosphorylation enrichment for the following sequence: SSTAMYSAAGR [PSMB1_Y8_P11A] 0.455

Return phosphorylation enrichment for the following sequence: KNSSIYVVANI [VNN1_Y134_N131S] 1.38
